# Species on record: Homo sapiens
# protocol: To identify inhibition of the IFN signalling (Jak-Stat) pathway via expression of an eGFP reporter gene under the control of an IFN-stimulated response element (ISRE) containing MxA promoter.
# Format: functional
# Design: scale not given: direction of the effect not stated beside the values
# experimentalContext: 30 µM
Percent Effect values for the molecules below.
Answer with the value and then the unit.

Example cases with answers are listed next.
// returns reported Percent Effect for input Cc1ccc(S(=O)(=O)N2CCOc3ccccc32)cc1C(=O)O 1.07%

# repeat for CCOc1ccccc1-c1noc(CN(C)Cc2cnn(C)c2)n1 4.5%

# repeat for c1ccc(-n2ccnc2)c(CNCC2CNc3ccnn3C2)c1 (centres undefined) 17.5%

Continuing:
// returns reported Percent Effect for input COCCn1cc(C(=O)N2CCCC2c2cc(C)no2)ccc1=O (centres undefined) 1.94%

# repeat for O=C(Nc1cccnc1)[C@H]1CO[C@H]2CCN(c3ncc(F)cn3)C[C@H]2C1 -7%

# repeat for CCN1CC2(CC1=O)CN(Cc1cccs1)CCN(C(=O)C(C)C)C2 (centres undefined) -3.43%

# repeat for COc1cccc(CNc2c(C)cnc3c2c(=O)n(C)c(=O)n3C)c1 21.6%

# repeat for Cn1cc(-c2csc(CN3CCOCC3)n2)cn1 -3.07%

# repeat for CS(=O)(=O)NCc1cc2n(n1)CCCN(Cc1cccc(C#N)c1)C2 18.6%

# repeat for CN(CC(=O)N1CCC(C(O)c2ccccc2)CC1)c1cnccn1 (centres undefined) 13.4%

# repeat for Cc1nccc(N2CCC(=O)N(Cc3ccc(F)cc3)C(C(C)C)C2)n1 (centres undefined) -6.54%

# repeat for Cc1ncsc1C(=O)NC1CCN(CC(=O)N(C)c2ccccc2)CC1 1.23%

# repeat for O=C1CC2(CCCCN2C(=O)c2ccsc2)CN1CC1CC1 (centres undefined) -8.36%

# repeat for CNS(=O)(=O)CCCN1CCCC1c1noc(C2CC2)n1 (centres undefined) 10.4%

###

# measuredOn: AMP-activated protein kinase, AMPK (Homo sapiens) (UniProt P54646+O43741+P54619+Q9UGJ0+Q9Y478+Q13131+Q9UGI9)
# protocol: AMP-dependent Kinase enzyme assay. An in vitro enzyme assay that detects ADP turnover that is directly proportional to AMPK activity. This uses naive AMPK that is activated during the assay with MK-8722
# Type: functional
# Set-up: scale not given: direction of the effect not stated beside the values
# experimentalContext: 30 µM
endpointName: Percent Effect (%)
Quick note: give the figure in %, leave out the unit.

Example cases with answers are listed next.
// returns reported Percent Effect for input Cc1ccc2c(n1)N(C)CCN(C(=O)C1CC1)C2 0.651

# repeat for Cc1nn(C)c(Cl)c1C(=O)NCC(c1ccsc1)N(C)C (stereo unspecified) -4.46

# repeat for Cn1cc(CN2C[C@@H]3CN(Cc4ccoc4)CCO[C@@H]3C2)cn1 7.44

# repeat for c1cnc(NCc2cncc3c2CCN(Cc2cccs2)C3)nc1 8.51

# repeat for Cc1nc(C)n(CC2CCCCN2CC(=O)NC2CCOCC2)n1 (stereo unspecified) 6.87

Here is the next item to consider.
// returns reported Percent Effect for input COCC1CC2(CCN(Cc3cnn(C)c3)CC2)CN1c1ncccn1 (stereo unspecified) 0.218

###

# measuredOn: Tyrosyl-tRNA synthetase, putative (Trypanosoma cruzi (strain CL Brener))
# protocol: Trypanosoma cruzi tyrosyl tRNA synthetase (TcYRS) SOP
# Format: functional
# Set-up: scale not given: direction of the effect not stated beside the values
# experimentalContext: 30 µM
Percent Effect values for the compounds below.
Quick note: give the figure in %, leave out the unit.

Example cases with answers are listed next.
// returns reported Percent Effect for input CCCS(=O)(=O)N1CCC2(CN(c3cnn(C)c3)C(=O)CN2C)C1 (stereo unspecified) 8.54

# repeat for CCc1ccc(NC(=O)C2OC(c3cccs3)=NN2C(C)=O)cc1 (stereo unspecified) 10

# repeat for O=C(NCc1nn(-c2ccccc2)c2c1CCC2)N1CCSCC1 13.2

# repeat for O=C1NC2(CCN(C(=O)c3ccccc3)CC2)CC1c1cccnc1 (stereo unspecified) 13.6

# repeat for CCCc1n[nH]c(C2CN(C(=O)CCCn3cccn3)CCO2)n1 (stereo unspecified) -2.56

Here is the next item to consider.
// returns reported Percent Effect for input CN1[C@H](CN2CCCC2)C[C@@H]2CN(C(=O)Cc3cccs3)CC[C@@H]21 2.5
